Recorded measurements of Top (MFI), one per entry
Molecular target: T1, human interleukin 13 receptor subunit alpha 2 (IL-13RA2) (human, UniProt Q14627 27-380)
T1 construct: whole, on cells; also called IL-13Rα2; CD213A2
T1 sequence (looked up): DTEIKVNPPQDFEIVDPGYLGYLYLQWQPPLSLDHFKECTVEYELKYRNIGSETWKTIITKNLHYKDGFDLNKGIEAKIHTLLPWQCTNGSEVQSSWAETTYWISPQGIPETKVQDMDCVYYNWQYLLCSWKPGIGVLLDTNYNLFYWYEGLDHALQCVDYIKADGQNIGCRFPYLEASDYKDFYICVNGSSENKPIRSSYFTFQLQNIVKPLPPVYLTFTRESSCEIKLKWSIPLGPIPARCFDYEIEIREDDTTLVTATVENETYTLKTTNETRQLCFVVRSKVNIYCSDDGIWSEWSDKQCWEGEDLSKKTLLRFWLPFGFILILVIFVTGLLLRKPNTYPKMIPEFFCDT
Assay: FACS on A375 cells
Note: unit MFI is implicit; provide only the numeric part.

Completed entries (count: 2):
# Binder, Top (MFI)
data = [
    ("72B4H4 H1L2 hIgG1 (antibody, V domains shown, humanized, hIgG1) VH: QVQLVQSGAEVKKPGASVKVSCKASGYTFTNYWMNWVRQAPGQGLEWMGRIDAYAGETHYNQKFKDRVTMTRDTSTSTVYMELSSLRSEDTAVYYCARGYGDAYGMDHWGQGTLVTVSS VL: DIQMTQSPSSLSASVGDRVTITCRASESVDNYGISFMNWFQQKPGKAPKLLIYAASRQGSGDPSRFSGSGSGTDFTLTISSLQPEDFATYFCQQSKEVPWTFGQGTKVEIK", 8540),
    ("57F8H3F1 H1L3 hIgG1 (antibody, V domains shown, humanized, hIgG1) VH: QVQLVQSGAEVKKPGASVKVSCKASGYTFTNYWMNWVRQAPGQGLEWMGRIDAYETETHYNQKFRDRVTMTRDTSTSTVYMELSSLRSEDTAVYYCARGYGHYYGVDYWGQGTLVTVSS VL: DIQLTQSPSSLSASVGDRVTITCRASENVGNFGISFVNWFQQKPGKAPKLLIYAASNLGSGDPARFSGSGSGTDFTLTISSLQPEDFATYFCQQSKGVPWTFGGGTKVEIK", 7540),
]

Now let's try a different one.
The reported Top (MFI) of the binder 61H8C1 H2L2 hIgG1 (antibody, V domains shown, humanized, hIgG1) VH: QVQLVQSGAEVAKPGASVKVSCKASGYTFTSYWTQWIRQAPGQGLEGMGAIYPGDDDTSYNQKFKGRVTMTADTSTSTVYMELSSLRSEDTAVYYCARGATLLRPFPYWGQGTLVTVSS VL: DIQMTQSPSSLSTSVGDRVTITCKASQDVSTAVAWYQQKPGKSPKLLIYSASYRYTGVPSRFSGSGSGTDFTLTISSLQPEDFATYSCQQHYSIPPTFGQGTKLEIK was 22400
